test system: LS174T colon cancer cells; assay: LS174T cell proliferation assay; format: cell-based; design: unit not given here; settings: Table 3; 30 nM
# maps each entry to its effects on LS174T colon cancer cell proliferation (Table 3)
Give a plain numeric answer without units written out.

Recorded results for 3 compounds are shown here.
[[record]]
query_smiles = "CN(C)c1ccc(C#Cc2c(F)cncc2F)cc1"
test_result = 16.7

[[record]]
query_smiles = "CNc1ccc(C#Cc2c(F)cncc2F)cc1"
test_result = 20.3

[[record]]
query_smiles = "Fc1cncc(F)c1C#Cc1ccccc1"
test_result = 5.3


Now for another entry.
## Input Item Nc1ccc(C#Cc2c(F)cncc2F)cc1 : provide effects on LS174T colon cancer cell proliferation (Table 3)
## Output 11.4

====

Where a name gives a salt, the structure may show the parent alone.
Recorded metric: melting point

Below, 3 molecules whose answers are already recorded.
[[record]]
molecule = "CN(C)c1ccc(C#Cc2c(F)cccc2F)nc1"
test_result = "120 to 122 °C"

[[record]]
molecule = "Fc1cccc(F)c1C#Cc1ccnc2cc(Cl)ccc12"
test_result = "130 to 132 °C"

[[record]]
molecule = "Fc1cccc(F)c1C#Cc1cnc(Cl)c2ccccc12"
test_result = "145 to 146 °C"


## Input Tell me its melting point given Fc1cccc(F)c1C#Cc1ccc(N2CCOCC2)cc1 as the entry.
## Output 144 to 145 °C

## Input // fetch melting point given entry Fc1cccc(F)c1C#Cc1cnc2c(F)cccc2c1
## Output 136 to 137 °C

## Input State its melting point for this molecule: Fc1ccc2ccnc(C#Cc3c(F)cccc3F)c2c1
## Output 177 to 178 °C

## Input Check the records and state melting point for Fc1cccc(F)c1C#Cc1cnc2ccccc2c1Cl
## Output 140 to 142 °C

## Input Query melting point for CN1CCN(c2ncc(C#Cc3c(F)cccc3F)c3ccccc23)CC1 (as salt: hydrochloride)
## Output 70 to 72 °C

## Input Specify measured melting point for Fc1cccc(F)c1C#Cc1ccc2cncnc2c1 .
## Output 166 to 168 °C

## Input Hello, please tell me recorded melting point for this one: CN(C)c1ncc(C#Cc2c(F)cccc2F)c2ncccc12
## Output 149 to 150 °C

## Input Identify melting point associated with the molecule Fc1cccc(F)c1C#Cc1cncc2ccccc12
## Output 102 to 104 °C

## Input Let me know recorded melting point for Fc1cccc(F)c1C#Cc1ccc2[nH]ccc2c1 , thanks.
## Output 131 to 133 °C

## Input For the molecule Fc1cccc(F)c1C#Cc1ccc2ncccc2c1 , give its measured melting point value.
## Output 91 to 93 °C

## Input Output melting point of Fc1cncc(F)c1C#Cc1ccccc1
## Output 52 to 54 °C

## Input Consider the molecule Cc1ccc(C)n1-c1ccc(C#Cc2c(F)cccc2F)cc1 and give its recorded melting point.
## Output 124 to 126 °C

## Input Specify measured melting point for CN(C)c1ccc2cc(C#Cc3c(F)cccc3F)ccc2n1 .
## Output 142 to 144 °C

## Input Give melting point for Fc1cccc(F)c1C#Cc1nccc2ccccc12
## Output 120 to 122 °C

## Input Please report melting point for the following molecule: Fc1cccc(F)c1C#Cc1cccc2cnccc12
## Output 115 to 117 °C

## Input State its melting point for this molecule: Fc1cccc(F)c1C#Cc1ccc2c(Cl)ccnc2c1
## Output 148 to 150 °C

## Input Consider the molecule O=C1CCCCN1c1ccc(C#Cc2c(F)cccc2F)cc1 . State its measured melting point.
## Output 148 to 150 °C
